- System: PPARg DBDmut:RXRa IVT, anti-PPARg (DBD mutation: PPARg1 K132A/R137A, NR concentration 270 nM, RXRa partner concentration 90 nM)
- ASSAY_PROTOCOL: PBM binding z-score (relative to random genomic background probes); higher = stronger binding; sequences stand for … in GC…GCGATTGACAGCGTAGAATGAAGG
Classification scheme (PBM binding z-score): low = under -0.4, intermediate = from -0.4 up to 1, high = 1 and over

Challenge: Any idea which band "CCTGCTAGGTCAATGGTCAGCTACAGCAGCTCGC" is in?
Response given: intermediate

Challenge: Any idea which band "ACTCGGAGAACAAAGGTCAGAGCTACGCCAGTGA" is in?
Response given: intermediate

Challenge: Any idea which band "AATCCAGGGTCATCGTAGGCCAGAGTACGCACAG" is in?
Response given: high

Challenge: Any idea which band "GCTAGCAGGCCATTTGGTTCACTCAATGACGGGC" is in?
Response given: low

Challenge: Any idea which band "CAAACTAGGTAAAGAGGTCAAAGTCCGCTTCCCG" is in?
Response given: high

Challenge: Any idea which band "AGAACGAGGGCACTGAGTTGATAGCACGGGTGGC" is in?
Response given: intermediate

Challenge: Any idea which band "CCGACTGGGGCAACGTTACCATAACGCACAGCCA" is in?
Response given: low

Challenge: Any idea which band "GCGACTGGGGCAAAGCACGTTACCATAAGGTTGG" is in?
Response given: intermediate

Challenge: Any idea which band "AGAATGAGGCTATTAAGATCAGGGAATTGCGGTC" is in?
Response given: intermediate

Challenge: Any idea which band "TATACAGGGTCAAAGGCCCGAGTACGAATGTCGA" is in?
Response given: high

Challenge: Any idea which band "AGTCAAAGTTCACTAGATAACGTAAGATTCAGCT" is in?
Response given: high
